I'd appreciate it if you could supply binding signal values for the items below.
test_system: T1, UNK ZnF1-6 (called full-length) (human, UniProt Q9C0B0 30-357)
T1 sequence: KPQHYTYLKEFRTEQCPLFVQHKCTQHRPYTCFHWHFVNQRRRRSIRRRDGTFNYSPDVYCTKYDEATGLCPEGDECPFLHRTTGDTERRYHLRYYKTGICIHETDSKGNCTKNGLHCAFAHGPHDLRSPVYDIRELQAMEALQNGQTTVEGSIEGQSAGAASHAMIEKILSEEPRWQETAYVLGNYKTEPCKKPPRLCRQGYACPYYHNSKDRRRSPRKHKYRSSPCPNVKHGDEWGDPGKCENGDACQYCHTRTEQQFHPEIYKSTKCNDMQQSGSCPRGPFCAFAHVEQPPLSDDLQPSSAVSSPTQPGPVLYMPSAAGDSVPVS
experiment_summary: nsRBNS (natural sequence RNA bind-n-seq); RBNS binding buffer (assumed for nsRBNS): 25 mM Tris pH 7.5, 150 mM KCl, 3 mM MgCl2, 0.01% Triton X-100, 500 ug/ml BSA, 20 U/ml SUPERase-In, 4 C; UNK is unkempt and MSI1 is Musashi-1; names of the RNAs are library labels; protein concentration not given here; high values mean tight binding
In all, about 5,800 sequences were measured (“enrichment r”: median about 0.68, highest 2% from about 11 on). For the sample, the highest values were picked, then their nearest neighbours and some sequences at random.
Answers are plain numbers, in enrichment R.

Field: example entries. Status: answers known.
{"binder": "chr12:293013:293114:-|CDS|ENSG00000073614|unk|FALSE|bound_elsewhere (ssRNA) RNA: GGGAGUUCUACAGUCCGACGAUCACUAAAAGUGAAAGGAAAGGACUCUUCAGAGAAGAAACGGAAACGGAAGCUAGAAAAGGUAGAGCAACUUUUUGGAGAAGGAAAACAGAAGUCCAAGGAGUUAAAGAAAAUGGACAAACCCAACAGAGGAUUGAGCAUCA", "unit_abbreviation": "enrichment R", "meas_value": 0.672}
{"binder": "chr2:171482635:171482736:+|3pUTR|ENSG00000115827|unk|FALSE|unique (ssRNA) RNA: GGGAGUUCUACAGUCCGACGAUCCAAGAGUGUUUCAGAAUAGGAUGUCUUAAGACUUCAGUCAUGUCAGAGAUUUUUUUUUUUAGGUGAUUAUUGAGUUUCUCCUUCUCCUUUAAGUCAUCACCUUCCUUUUAUGAAAUGAUACAACAGAGGAUUGAGCAUCA", "unit_abbreviation": "enrichment R", "meas_value": 1.03}
{"binder": "chr21:14371318:14371404:-|3pUTR|ENSG00000155304|msi1_unk|total|mutant (ssRNA) RNA: GGGAGUUCUACAGUCCGACGAUCUAUGAAUAACAAUCUGAAGUCUUUUCAUAAAAAAAAUUAAUAAACUUCCGUUGUACAUUCCGCCAGUGUUAUUUGAAGUAUGUAACUUUUAAAAUAUUAAGUGUCUUGUAUGAUCCGAAUCAACAGAGGAUUGAGCAUCA", "unit_abbreviation": "enrichment R", "meas_value": 0.702}

Take each entry in turn and give its binding signal.
1. chr2:42328916:42329027:+|CDS|ENSG00000143924|unk|total|mutant (ssRNA) RNA: GGGAGUUCUACAGUCCGACGAUCAGAAGGAUCUGAUGGGACAGAUAUCAAUGCACUGGUGCGAUCCCACAACCGAAAGGUGACCGCUGUUGCCGAUGACUUUUGUAAAGUCCAUCUGUUUCAGUAUCCCUGCUCCAAAGCAAACAACAGAGGAUUGAGCAUCA
2. chr11:101890673:101891278:-|three_prime_utr|ENSG00000187151|control|control|control (ssRNA) RNA: GGGAGUUCUACAGUCCGACGAUCGUAAUGCAAGUUCUACAAUGAUAAUAUAUUAAAGAUUUUUAAAAGUUUAUCUUUUCACUUAGUGUUUCAAACAUAUUAGGCAAAAUUUAACUGUAGAUGGCAUUUAGAUGUUAUGAGUUUCAACAGAGGAUUGAGCAUCA
3. chr5:160402147:160402258:-|3pUTR|ENSG00000164609|unk|FALSE|unique (ssRNA) RNA: GGGAGUUCUACAGUCCGACGAUCAUGGUUUACAUUACCGUUUGUUUUCAUUGUGAUUGCCCCUAUGUAACAAUCAUGAAUAUUAGAUUUUUUAAAUUGUAGAAUAUCCUAAUAUUUAUAGCCAGCAGCUGUUACUUUGUUUGUCAACAGAGGAUUGAGCAUCA
4. ENSG00000198589:be:win_8701|3pUTR|ENSG00000198589|bound_else_gene|NA|bound_elsewhere_windowed (ssRNA) RNA: GGGAGUUCUACAGUCCGACGAUCUGUAGUCUUUGCUUGACUUUUUUGGGGGGGAUUAGCAAAGCAGAAAACUGGCUGCUGGGUUCUGUAGUUUUAAAAAAUCUAUAUUUUUAGUCAUAAUGAGAAGUCUAUUUUCACCAAUUACAACAGAGGAUUGAGCAUCA
5. chr1:159061598:159062691:-|three_prime_utr|ENSG00000163568|control|control|control (ssRNA) RNA: GGGAGUUCUACAGUCCGACGAUCUCAAUCAGAUUGUAAGUUACCUGAAAGCUGCAGUUCACAGGCUCCUCUCUCCACCAAAUUAGGAUAGAAUAAUUGCUGGAUAAACAAAUUCAGAAUAUCAACAGAUGAUCACAAUAAACACAACAGAGGAUUGAGCAUCA
6. chr17:61865808:61865921:-|3pUTR|ENSG00000108506|unk|FALSE|unique (ssRNA) RNA: GGGAGUUCUACAGUCCGACGAUCUUCUAUGAGAAUGAGUUUGUAGCUGUUUCAAAUCAUGAAGUGCAUAGUAUCACAUGUGAUAGAAUAUUUAUAACUUUUUAUUAGAUGCUUAAUGUUCAAUUAAGUAAUUUUGAUGUGAAACAACAGAGGAUUGAGCAUCA

1: 0.381; 2: 5.03; 3: 5.04; 4: 29; 5: 1.86; 6: 2.51
